target-system: Bifunctional dihydrofolate reductase-thymidylate synthase (Plasmodium falciparum)
Sequence (A7UD81 whole entry): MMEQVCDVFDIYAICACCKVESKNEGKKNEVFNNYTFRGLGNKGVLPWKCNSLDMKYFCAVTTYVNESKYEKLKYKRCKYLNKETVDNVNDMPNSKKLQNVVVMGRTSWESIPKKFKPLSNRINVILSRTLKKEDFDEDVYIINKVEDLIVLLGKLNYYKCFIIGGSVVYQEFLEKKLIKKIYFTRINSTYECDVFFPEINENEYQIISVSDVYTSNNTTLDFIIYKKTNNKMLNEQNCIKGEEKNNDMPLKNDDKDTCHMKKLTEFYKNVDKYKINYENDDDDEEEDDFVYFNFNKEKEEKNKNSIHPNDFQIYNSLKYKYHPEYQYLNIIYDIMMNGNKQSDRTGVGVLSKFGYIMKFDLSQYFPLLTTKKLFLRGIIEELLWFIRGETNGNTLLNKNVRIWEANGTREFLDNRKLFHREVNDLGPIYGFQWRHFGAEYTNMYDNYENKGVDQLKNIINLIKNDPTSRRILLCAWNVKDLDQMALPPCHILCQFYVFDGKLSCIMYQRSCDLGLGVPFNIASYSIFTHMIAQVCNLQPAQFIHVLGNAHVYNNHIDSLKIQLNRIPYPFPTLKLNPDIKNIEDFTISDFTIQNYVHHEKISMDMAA
measurement-description: Evaluated for inhibition constant (Ki wt) against Wild-type dihydrofolate reductase of Plasmodium falciparum
pKi: −log10 of the molar value.
measurement-label: pKi

compound	assay-result
NC1=NCN(c2ccc(F)cc2)C(N)=N1	6.57
CCCC1N=C(N)N=C(N)N1c1ccc(Br)cc1 (stereo unspecified)	8.59
CCCC1N=C(N)N=C(N)N1c1ccc(Cl)cc1 (stereo unspecified)	8.34
Cc1ccc(N2C(N)=NC(N)=NC2C(C)C)cc1 (stereo unspecified)	6.78
CC1(C)N=C(N)N=C(N)N1c1ccc(F)cc1	8.34
CC1(C)N=C(N)N=C(N)N1c1ccccc1	7.70
NC1=NCN(c2ccccc2)C(N)=N1	6.48
CC1N=C(N)N=C(N)N1c1ccc(Br)cc1 (stereo unspecified)	8.24
CC1N=C(N)N=C(N)N1c1ccc(Cl)c(Cl)c1 (stereo unspecified)	8.85
Cc1ccc(N2C(N)=NC(N)=NC2c2ccccc2)cc1 (stereo unspecified)	8.11
CCCCC1N=C(N)N=C(N)N1c1ccc(Cl)cc1 (stereo unspecified)	8.43

Every entry's value here was drawn from BindingDB's records for doi:10.1021/jm0009181.
